EXPERIMENTAL_TARGET: HDAC6 (Homo sapiens, UniProt Q9UBN7)
Construct: purchased Reaction Biology Corporation (assay run by the CRO)
Sequence (Q9UBN7 1-1215): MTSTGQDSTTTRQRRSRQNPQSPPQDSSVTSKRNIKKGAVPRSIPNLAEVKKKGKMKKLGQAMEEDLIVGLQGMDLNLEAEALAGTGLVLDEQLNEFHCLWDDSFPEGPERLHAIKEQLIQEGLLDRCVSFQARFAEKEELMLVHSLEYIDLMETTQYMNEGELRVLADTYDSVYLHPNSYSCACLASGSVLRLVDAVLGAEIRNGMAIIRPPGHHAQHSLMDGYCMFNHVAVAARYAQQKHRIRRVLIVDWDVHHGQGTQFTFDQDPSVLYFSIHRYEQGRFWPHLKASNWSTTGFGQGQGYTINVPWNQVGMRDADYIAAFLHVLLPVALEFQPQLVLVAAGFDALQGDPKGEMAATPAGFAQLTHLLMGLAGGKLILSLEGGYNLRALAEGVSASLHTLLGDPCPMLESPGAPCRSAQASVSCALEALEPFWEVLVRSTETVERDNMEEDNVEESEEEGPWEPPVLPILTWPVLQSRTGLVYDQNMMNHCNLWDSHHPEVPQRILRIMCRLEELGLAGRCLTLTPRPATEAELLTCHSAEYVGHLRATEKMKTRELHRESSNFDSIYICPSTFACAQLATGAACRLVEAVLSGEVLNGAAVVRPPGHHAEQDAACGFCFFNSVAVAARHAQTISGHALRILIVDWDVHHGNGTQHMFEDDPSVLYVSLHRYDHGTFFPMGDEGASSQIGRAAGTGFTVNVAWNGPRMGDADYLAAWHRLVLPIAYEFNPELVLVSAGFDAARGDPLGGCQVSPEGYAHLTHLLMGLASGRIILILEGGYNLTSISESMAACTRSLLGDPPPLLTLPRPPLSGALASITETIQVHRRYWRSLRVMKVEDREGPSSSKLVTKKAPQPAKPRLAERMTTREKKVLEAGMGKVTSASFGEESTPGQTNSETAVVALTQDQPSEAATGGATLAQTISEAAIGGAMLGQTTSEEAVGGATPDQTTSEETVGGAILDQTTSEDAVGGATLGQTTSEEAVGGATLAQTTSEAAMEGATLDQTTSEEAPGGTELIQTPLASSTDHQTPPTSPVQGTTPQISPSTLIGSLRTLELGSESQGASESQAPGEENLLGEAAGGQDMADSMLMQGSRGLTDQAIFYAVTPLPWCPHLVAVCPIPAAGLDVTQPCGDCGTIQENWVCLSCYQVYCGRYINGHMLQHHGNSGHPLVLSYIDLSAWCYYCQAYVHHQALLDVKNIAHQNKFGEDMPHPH
EXPERIMENTAL_PROTOCOL: HDAC6 inhibition, full IC50 measurement (Reaction Biology; fluorogenic p53 peptide RHKK(Ac)AMC)
Type: biochemical
EXPERIMENTAL_CONDITIONS: Conc. 5.08E-10 M, t1
Experimental: The assay was performed using 50 μM fluorogenic peptide from p53 residues 379-382 [RHKK(Ac)AMC] in a base reaction buffer of 50 mM Tris-HCl at pH 8.0, 137 mM NaCl, 2.7 mM KCl, 1 mM MgCl2, and freshly added 1 mg/ml BSA and 1% DMSO. […] Peptide concentrations were calculated based on mass of lyophilized peptide and its molecular weight. […]
Peptide text beside a SMILES is read from it.
Rule: y for HDAC6 activity raw data (signal) not less than 500000, n for anything less.

Study these solved cases before continuing.
CCCC[C@H]1NC(=O)[C@H](CC(=O)O)NC(=O)[C@@H](CO)NC(=O)[C@@H](C)NC(=O)[C@H](CCCCN)NC(=O)[C@@H](CCCCN)NC(=O)[C@H](Cc2ccccc2)NC(=O)[C@H](CCCCCS)NC1=O [des4.3.1.2, SHA-Phe-dLys-Lys-dAla-dSer-Asp-dNle] (HELM PEPTIDE1{D.[CCCC[C@@H](N[*:1])C(=O)[*:2]].[O=C([C@H](CCCCCS)N[*:1])[*:2]].F.[dK].K.[dA].[dS]}$PEPTIDE1,PEPTIDE1,1:R1-8:R2$$$V2.0) : y
CCCC[C@H]1NC(=O)[C@H](Cc2ccccc2)NC(=O)[C@H](CCCCCS)NC(=O)[C@@H](CCCNC(=N)N)NC(=O)[C@H](C)NC(=O)[C@@H](CO)NC(=O)[C@@H](C)NC(=O)[C@H](CCCCN)NC1=O [des4.3.1.3, SHA-Phe-dNle-Lys-dAla-dSer-Ala-dArg] (HELM PEPTIDE1{A.[dR].[O=C([C@H](CCCCCS)N[*:1])[*:2]].F.[CCCC[C@@H](N[*:1])C(=O)[*:2]].K.[dA].[dS]}$PEPTIDE1,PEPTIDE1,1:R1-8:R2$$$V2.0) : y
N=C(N)NCCC[C@@H]1NC(=O)[C@H](Cc2c[nH]c3ccccc23)NC(=O)[C@H](CC(=O)O)NC(=O)[C@@H](CO)NC(=O)[C@H](Cc2c[nH]c3ccccc23)NC(=O)[C@H](CCCCCS)NC(=O)[C@H](CCC(N)=O)NC1=O [des4.1.0, SHA-Trp-dSer-Asp-Trp-Arg-Gln] (HELM PEPTIDE1{D.W.R.Q.[O=C([C@H](CCCCCS)N[*:1])[*:2]].W.[dS]}$PEPTIDE1,PEPTIDE1,1:R1-7:R2$$$V2.0) : y

Input line: Has CCCC[C@H]1NC(=O)[C@H](Cc2ccccc2)NC(=O)[C@H](CCCCCS)NC(=O)[C@@H](CCCNC(=N)N)NC(=O)[C@H](CC(=O)O)NC(=O)[C@@H](CO)NC(=O)[C@@H](C)NC(=O)[C@H](CCCCN)NC1=O [des4.3.1, SHA-Phe-dNle-Lys-dAla-dSer-Asp-dArg] (HELM PEPTIDE1{D.[dR].[O=C([C@H](CCCCCS)N[*:1])[*:2]].F.[CCCC[C@@H](N[*:1])C(=O)[*:2]].K.[dA].[dS]}$PEPTIDE1,PEPTIDE1,1:R1-8:R2$$$V2.0) a recorded HDAC6 activity raw data (signal) greater than or equal to 500000?
Output line: y

Input line: Has CC(C)C[C@H]1NC(=O)[C@H](Cc2c[nH]c3ccccc23)NC(=O)[C@H](CCCCCS)NC(=O)[C@@H](Cc2ccc(O)cc2)NC(=O)[C@@H](C(C)C)NC(=O)[C@H](Cc2c[nH]cn2)NC(=O)CNC(=O)CNC(=O)[C@@H](CO)NC1=O [des2.2.0, SHA-Trp-dLeu-dSer-Gly-Gly-His-dVal-dTyr] (HELM PEPTIDE1{G.G.H.[dV].[dY].[O=C([C@H](CCCCCS)N[*:1])[*:2]].W.[dL].[dS]}$PEPTIDE1,PEPTIDE1,1:R1-9:R2$$$V2.0) a recorded HDAC6 activity raw data (signal) greater than or equal to 500000?
Output line: n
